Property: U937 Cytotoxicity Human T-cells; scope: individual binders
- tgt: human CD3 expressed on cells (Jurkat cells; human T-cells of PBMC) (human, UniProt P09693 23-182; P20963 22-164)
- Sequence (chain, as listed by the source, chain 1 of 4): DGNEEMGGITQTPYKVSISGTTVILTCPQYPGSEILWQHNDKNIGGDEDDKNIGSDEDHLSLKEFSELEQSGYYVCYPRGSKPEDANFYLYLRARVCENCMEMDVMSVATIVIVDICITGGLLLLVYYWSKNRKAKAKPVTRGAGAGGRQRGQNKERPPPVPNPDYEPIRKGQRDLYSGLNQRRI
- Sequence (chain, as listed by the source, chain 2 of 4): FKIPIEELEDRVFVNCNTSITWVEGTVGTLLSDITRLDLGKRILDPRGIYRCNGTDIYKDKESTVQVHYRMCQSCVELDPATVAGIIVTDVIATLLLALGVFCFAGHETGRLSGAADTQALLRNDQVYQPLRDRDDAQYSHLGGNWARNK
- Sequence (P09693 23-182, chain 3 of 4): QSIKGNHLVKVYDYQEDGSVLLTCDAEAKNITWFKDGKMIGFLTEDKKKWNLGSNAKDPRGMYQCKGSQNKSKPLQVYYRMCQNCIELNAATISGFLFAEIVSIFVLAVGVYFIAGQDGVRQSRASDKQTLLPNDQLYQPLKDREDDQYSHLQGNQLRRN
- Sequence (P20963 22-164, chain 4 of 4): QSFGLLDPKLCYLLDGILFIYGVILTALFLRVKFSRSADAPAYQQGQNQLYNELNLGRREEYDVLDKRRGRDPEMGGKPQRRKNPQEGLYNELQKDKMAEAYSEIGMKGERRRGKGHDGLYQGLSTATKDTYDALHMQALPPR
- test_details: cell-based or functional assay
Kindly provide the numeric value in pM only, without the unit symbol.

Consider the following illustrative entries.
In: # U937 Cytotoxicity Human T-cells lookup, item H1H5772S (antibody, human IgG1, V domains shown, H1H: human IgG1 Fc; also called H1H5772P) VH: QVQLVESGGGLVQPGRSLRLSCAASGFSFDDYAMHWVRQAPGQGLEWVSGISWNGGSRDYADSVKGRFTISRDNARNSLFLQMNSLFTEDTALYYCAKDKSGYGSYFYGMDVWGQGTTVTVSS VL: EIVLTQSPGILSLSPGDRATLSCRASQSIRNIYLAWYQQKPGQAPRLLIHGASTRATGIPDRFSGSGSGTDFTLTISRLEPEDFAVYYCQQRVSSPYTFGQGTKLEIK
Out: 0.689

In: # U937 Cytotoxicity Human T-cells lookup, item H1H5801B (antibody, human IgG1, V domains shown, H1H: human IgG1 Fc) VH: QVQLVQSGGGVVQPGGSLRLSCAASGFTFDDYAMHWVRQAPGKGLEWVSLISGDGGSTYYADSVKGRFTISRDNSKNSLYLQMNSLRTEDTALYYCAKDDSSSSWYYYYYGMDVWGRGTTVTVSS VL: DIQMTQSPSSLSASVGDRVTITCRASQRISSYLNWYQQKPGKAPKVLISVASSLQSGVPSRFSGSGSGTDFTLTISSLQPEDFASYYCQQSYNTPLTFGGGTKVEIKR
Out: 92.3

Now let's try a different one.
In: # U937 Cytotoxicity Human T-cells lookup, item H1H5786B (antibody, human IgG1, V domains shown, H1H: human IgG1 Fc) VH: QVQLVESGAEVKKPGASVKVSCKTSGYTFTGYYMHWIRQAPGQGLEWMGWINPKSGGTNYAQKFQGRVTMTRDTSISTAYMELSRLRSDDMAVYYCARMGDGAVFDFWGQGTLVTVSS VL: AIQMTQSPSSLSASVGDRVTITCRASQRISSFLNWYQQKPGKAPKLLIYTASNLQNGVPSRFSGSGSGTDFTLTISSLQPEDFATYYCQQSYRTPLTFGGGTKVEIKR
Out: 61
